Where these numbers come from: PubChem BioAssay

Assay: S6 kinase pathway phospho-S6 level changes – cell-based, A549, cytoblot, luminescence, serum-stimulated, primary screen (AID 1158);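 also: serum-stimulated A549 lung adenocarcinoma cells; signal is phosphorylated S6 detected by cytoblot immunostaining with HRP secondary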
Settings: 5 h, higher = more signal
So basically every entry gets a class from its z-score, ranges being LOW (below 0.02), MID (0.02 to below 0.6), HIGH (0.6 or more)

Worked examples, 5 compounds total:
compound	classification
COCCCNC(=O)[C@@]1(Sc2ccc(C)cc2)CC(=O)N(Cc2ccccc2Cl)[C@@H]1c1ccc(CO)cc1	HIGH
COc1ccc([Si](C)(C)[C@@H]2[C@@H](CCO)O[C@]3(C(=O)N(Cc4cccc(N5CCOC5=O)c4)c4ccccc43)[C@H]2C)cc1	HIGH
COc1cc(CO)cc(I)c1O[C@H]1C=C(C(=O)NCCO)C[C@@H](NC[C@@H]2CCCO2)[C@@H]1O	HIGH
C=CCNC(=O)[C@@H]1[C@H]2C(=O)O[C@H](c3ccccc3)[C@H](c3ccccc3)N2[C@H](c2ccc(OCCO)cc2)[C@@]12C(=O)N(C(=O)OCCOC)c1ccc(C#CCNC(N)=O)cc12	MID
COCCOC(=O)N1C(=O)[C@@]2(c3ccccc31)[C@H](c1ccc(OCCO)cc1)N1[C@H](c3ccccc3)[C@H](c3ccccc3)OC(=O)[C@H]1[C@@H]2C(=O)N1CCc2cc(OC)c(OC)cc2C1	HIGH

input: Returns: class label. Input: CN(C)CCCCCCNC(=O)[C@@H]1C[C@@H]2C(=O)N3CCC[C@H]3C(=O)N2[C@@H]1c1ccc(O)cc1
output: HIGH

input: Repeat with CCN(CC)c1ccc(N2CC=CC34O[C@@H]5/C=C\CCC(C)OC(=O)C5[C@H]3C(=O)N(CCCCCO)[C@@H]4C2=O)cc1 (stereo not given in full)
output: MID

input: Repeat with C=CC[C@]1(C(N)=O)N=C(c2ccc(OCCCO)cc2)O[C@H]1c1ccccc1
output: LOW

input: Repeat with O=C1O[C@H](c2ccccc2)[C@H](c2ccccc2)N2[C@H]1[C@@H](C(=O)N1CCN(c3ncccn3)CC1)[C@]1(C(=O)Nc3ccc(C#CC4=CCCCC4)cc31)[C@H]2c1ccccc1OCCO
output: LOW

input: Repeat with COC(=O)[C@]1(Cc2ccccc2)N=C(c2ccc(OCCCO)cc2)O[C@@H]1c1ccccc1N=[N+]=[N-]
output: MID

input: Repeat with COCCOC(=O)N1C(=O)[C@@]2(c3cc(C#CC4(O)CCCCCC4)ccc31)[C@H](C(=O)Nc1nc3ccccc3s1)[C@H]1C(=O)O[C@H](c3ccccc3)[C@H](c3ccccc3)N1[C@@H]2c1ccccc1OCCO
output: MID

input: Repeat with NCCCCCCNC(=O)[C@H]1C[C@H]2C(=O)N[C@@H](Cc3ccccc3)C(=O)N2[C@H]1c1cccc(OCCO)c1
output: LOW

---

The entries below come with measured composite z-score values attached.
Molecular target: Focal adhesion kinase 1 (Homo sapiens)
Assay: PTK2 protein binding on printed compound slides – biochemical, small-molecule microarray, 635/667 nm fluorescence, BSA, DTT, primary screen (AID 1130);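 also: composite of spot emission at 667 nm and signal to noise over triplicate slides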
Settings: 635 nm fluorescence, higher = more signal
Response field accepts a number only; no unit should be typed.

compound	composite z-score
Cc1ccc([C@H]2C(C(=O)O)=CCN2S(=O)(=O)c2ccc(C)cc2)cc1	1.36
CCCC1(C(=O)OC)C=C2C(=C(c3ccccc3)C(=O)C2C)CN1 (stereo not drawn)	0.198
[N-]=[N+]=Nc1ccccc1C[C@]1(C(=O)N2CCCCC2)COC(c2ccc(OCCCO)cc2)=N1	0.65

input: Could you share which composite z-score value was measured for COc1cc(CO)cc(I)c1O[C@H]1C=C(C(=O)NCCO)C[C@@H](N(C(=O)c2cc3ccccc3oc2=O)C2CCCCCC2)[C@@H]1O ?
output: -0.314

input: Repeat with COCCOC(=O)N1C(=O)[C@@]2(c3cc(C#CC4(O)CCCCCC4)ccc31)[C@H](C(=O)Nc1nc3ccccc3s1)[C@H]1C(=O)O[C@H](c3ccccc3)[C@H](c3ccccc3)N1[C@@H]2c1ccc(OCCO)cc1
output: -0.0405

input: Repeat with C=CCC(OC(C)=O)[C@@H]1[C@@H](N(Cc2cc3ccccc3o2)C(=O)Cc2ccc(OC)cc2)c2cc(OCCCO)ccc2N1C(=O)c1ccc2ccccc2c1 (stereo partly drawn)
output: 0.115

input: Repeat with CC(=CC1CCCCC1)[C@@H](NC(=O)c1cccnc1)c1ccc(-c2ccccc2)cc1
output: -0.0341

input: Repeat with COC(=O)C(CC#Cc1ccc2c(c1)[C@]1(C(=O)N2)[C@H](c2ccccc2OCCO)N2[C@H](c3ccccc3)[C@H](c3ccccc3)OC(=O)[C@H]2[C@@H]1C(=O)O)C(=O)OC
output: 0.411

input: Repeat with [N-]=[N+]=NCc1ccccc1[C@H]1OC(c2ccc(OCCCO)cc2)=N[C@@]1(Cc1ccccc1)C(=O)N1CCCCC1
output: 0.795
